Read-out: Fatty acid synthase (Homo sapiens)
experiment summary: LTEA_HepaRG_FASN: Life Technologies and Expression Analysis (LTEA) Assay for Fatty Acid Synthase (FASN) using HepaRG (AID 2283448)
assay context: mRNA level, 48 h; actives raise or lower the signal
Calls of active or inactive are those of the source. How the source made its calls: active means hit-call score of the fitted dose curve at least 0.9, where 1 is the maximum; inactive means score below 0.9.
Outcomes you can answer with include only these: 1 for active, 0 for inactive

Solved cases below.
CCC(C)(c1ccc(O)cc1)c1ccc(O)cc1: 1
Clc1ccc(C(c2ccccc2Cl)C(Cl)(Cl)Cl)cc1 (stereo not given): 1
O=C(O)C(F)(F)C(F)(F)C(F)(F)C(F)(F)C(F)(F)F: 0
ClC1=C(Cl)[C@]2(Cl)[C@@H]3[C@@H]4C[C@@H]([C@H]5O[C@@H]45)[C@@H]3[C@@]1(Cl)C2(Cl)Cl: 0

Pending molecule:
Recorded test outcome, item N#Cc1ccc(N(CC(N)=O)CC(F)(F)F)cc1C(F)(F)F
0

Each recorded value in this set is attributed to PubChem BioAssay (EPA / NIEHS).
